Hey, just so you know, these numbers are from paper PMC9479156.

Test system: asexual blood stage P. falciparum W2 (multidrug resistant)
Run Description: SYBR Green I proliferation assay, asexual blood stage Pf W2
Assay type: cell-based, Plasmodium falciparum
Assay Conditions: Plasmodium falciparum, W2, 96 h, read-out: IC50 W2
Measured Endpoint: pIC50
pIC50 is defined as minus the log10 of a concentration measured in mol/L.

Hey, asexual blood stage P. falciparum W2 (multidrug resistant) data for CC1=C(O)C(=O)C=C2C1=CC=C1[C@@]2(C)CC[C@@]2(C)[C@@H]3C[C@](C)(C(=O)O)CC[C@]3(C)CC[C@]12C [Celastrol, celastrol] : pIC50 came out at 6.30

----------
Tested on: drug-sensitive and resistant asexual blood stage Pf
Run Description: Asexual blood stage activity over all strains (abstract)
Assay type: cell-based
Assay Conditions: Plasmodium falciparum, read-out: IC50 asexual blood stage Pf
pIC50: −log10 of the molar value.
Measured Endpoint: pIC50

Hey, drug-sensitive and resistant asexual blood stage Pf data for CC1=C(O)C(=O)C=C2C1=CC=C1[C@@]2(C)CC[C@@]2(C)[C@@H]3C[C@](C)(C(=O)O)CC[C@]3(C)CC[C@]12C : pIC50 came out at 6.09 to 6.30
